Dear all, I have gathered published IC50 values for MAGL (Homo sapiens, UniProt Q99685); the list follows.

molecule | IC50
O=C1CO[C@H]2CCN(C(=O)N3CC(c4ccc(N5CCCC5C(F)(F)F)nc4)C3)C[C@H]2N1 (stereo partly shown) | 7 nM
O=C(c1nccs1)N1CCC(C2CN(C(=O)c3sc4cc(C(F)(F)F)ccc4c3Cl)C2)CC1 | 6 nM
CS(=O)(=O)Nc1ccn(C(=O)N2CCN(Cc3ccc(C(F)(F)F)c(N4CCC(F)CC4)c3)CC2)n1 | ≤ 100 nM
O=C(c1cccc(-c2cnc[nH]2)c1Cl)N1CCN2C[C@@H](c3ccc(F)c(Cl)c3)OC[C@@H]2C1 | 7.4 nM
CS(=O)(=O)c1ccc(CC2CC3(C2)CN(C(=O)CC[C@@H]2COC(=O)N2)C3)cc1 | 93 nM

# lookup: IC50 of `N#Cc1ncc(-c2cccc(C(=O)N3CCN4C[C@@](O)(c5ccc(F)c(F)c5)OC[C@@H]4C3)c2Cl)[nH]1`
581 nM

Try the molecule CC1(CCC(=O)N2CC(OCc3ccc(C(F)(F)F)cc3F)C2)CCC(=O)N1 (single isomer, unassigned)
≥ 12500 nM
